Test system: Caco-2
ASSAY_REMARKS: Cytotoxicity against human Caco-2 cells assessed as inhibition of cell growth incubated for 72 hrs by CCK-8 assay
Type: functional, cell-based
COND: Caco-2, 72 h
# IC50 annotations
The reply should be a number in µM, with the unit left off.

A selection of reference data follows.
                         compound  tested_target   u  observed_value
0             C=CCCCCCCCCCCC(=O)O         Caco-2  µM             140
1  Cc1ccccc1/C=C/CCCCCCCCCCC(=O)O         Caco-2  µM             4.6
2          CCCC/C=C\CCCCCCCC(=O)O         Caco-2  µM             270

As a next step, examine the compound that follows.
Entry under test: CCCCCCCCCCCCC(=O)O [TRIDECANOATE] . Its IC50 was 280

---

System: MDA-MB-231
ASSAY_REMARKS: Cytotoxicity against human MDA-MB-231 cells assessed as inhibition of cell growth incubated for 72 hrs by CCK-8 assay
Format: functional, cell-based
COND: MDA-MB-231, 72 h
Some compounds, each annotated with its measured IC50.
Note: state the figure and append the unit.

>>> print(df.to_string())
                         compound  tested_target  observed_value
0  Cc1ccccc1/C=C/CCCCCCCCCCC(=O)O     MDA-MB-231         0.45 µM

IC50 reported for this compound Cc1ccccc1/C=C/CCC(=O)O : 190 µM
